Study target: PDZRN4_1, Q6ZMN7
Sequence (Q6ZMN7 213-318): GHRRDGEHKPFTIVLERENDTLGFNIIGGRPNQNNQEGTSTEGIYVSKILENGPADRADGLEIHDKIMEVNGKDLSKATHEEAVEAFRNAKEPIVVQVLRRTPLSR
Protocol description: holdup assay
Design: key: below the threshold = too weak to quantify, mostly under pKd 3.1 to 4
Settings: plain residues with an end cap or a label only (N-terminal biotin on a linker: ado-ado)

Binder: AQRARSPSDV [GPR12, P47775]
pKd: below the threshold
--
Binder: EDLEDEWEVI [TECPR2, O15040]
pKd: below the threshold
--
Binder: SVTSERETNI [SLC16A7, O60669]
pKd: below the threshold
--
Binder: SPDRDRESIV [SCN5A, Q14524]
pKd: 3.95
--
Binder: LAHVKHKEQI [AQP3, Q92482]
pKd: below the threshold
